Tested on: MS2 coat protein
Assay: apparent Kd, MS2 coat protein; higher = weaker binding; RNA-MaP array; tryptophan 2.4 mM where present
Conditions: ligand present: tryptophan; designed as: ON switch for tryptophan
Could you label it 1 (yes) if measured apparent Kd is 20 nM or higher, and 0 (no) otherwise?

Worked set:
CUACAUGUAGUUAAACCGGUCAACAAUAAUCGAGGACCGGUACGGCCGCCACUCGAUGUGUUAUACACAUGAGGAUCACCCAUGU: 0 (no)
UAAUAAUUCCUCAUGUCACGAGUGGCAUAACGAGGACCGGUACGGCCGCCACUCGAACAUGAGGAUCACCCAUGUAGCCACUCGA: 1 (yes)
GCUCACAUGAGGAUCACCCAUGUACGUCCGCGAGGACCGGUACGGCCGCCACUCGUGUUAGCUUCAAACUUGUUAGUGUUAAACA: 0 (no)
GGGAGGGAGGCGGCCGCCACUGAUUUUCAUAUAUAUAUAACAUGAGGAUCACCCAUGUGGAUAUACAGGACCGGGCCUUUUUUUU: 0 (no)
GUCUUUGACGAUCUGGGAAAACCAGAUCGACGAGGACCGGUACGGCCGCCACUCGUGUUUUCUUUACAUGAGGAUCACCCAUGUA: 0 (no)
GCAUCCUAGUCGGCCGCCACUGCAAUUGUAAUACUGCUACAUGAGGAUCACCCAUGUCCAUGUAGCAGGACCGGGACUAGGAUGC: 1 (yes)

// next entry
Exam item: decide whether the reported apparent Kd for UCGUUUUAGUCGGCCGCCACUGUAUGCAUGUUUAACAUGAGGAUCACCCAUGUCCCGUACUAUUUCAGGACCGGGACGUAAUCGA is at least 20 nM. 1 (yes)

###

System: MS2 coat protein
Experiment: apparent Kd, MS2 coat protein; higher = weaker binding; RNA-MaP array; FMN 200 µM where present
Conditions: ligand present: flavin mononucleotide; designed as: ON switch for flavin mononucleotide
In this section, each of the sequences is paired with its reported apparent Kd.
# output: bare number, implied unit nM

GCCAUCGUAUGAGGAUAUGGCACCGAAACGGUGCCAGAAGGCAUGUCAAUAGACAUGAGGAUCACCCAUGUGUUAUCGAUGGCA: 36.5
UAAAUACAUGAGGAUCACCCAUGUCAAAAGACAUGAGGAUAUGUACAGACUUCGGUCUGUACAGAAGGCAUGAAUA: 46.7
AAAAAACAUGAGGAUCACCCAUGUAAAAAUAUGGGAGGAUAUUCAAACACGAAAGUGAAAGAAGAAGGCCUAAAAA: 23.3

Find the recorded apparent Kd belonging to GGGUACAUCGGAGGAUAUCAUGUAAAUACAUGAGGAUCACCCAUGUCGAUGGAGACAUCGGAGAUUGAGAAGGCCGAUGGACCG and report it. 8.74

For the sequence shown here, GCGUAACAUGAGGAUCACCCAUGUGCCCGAGAAUUCGGGCCGAGAAGGGUGACCGGACGUAUGGCACAGGAUAUCGACGUUUUG , give the reported apparent Kd. 48.4

Requested field: apparent Kd. Item: GUGCCUUGGGAGAAGGUUAUUGGCAAAGCUAUUAAAGGAUAUUCAUACCGGAAACGGACAUGAGGAUCACCCAUGUGGCACAAA 208

For the sequence shown here, CGCUGUUGCGCAGGAUAUGCAUUGGAUUACAAUGCAGAAGGGCGAUUACAUGAGGAUCACCCAUGUGUAGACAGUGAAGAAGAG , give the reported apparent Kd. 37.2

Query: apparent Kd; subject: GGUGCACGCACAGGAUAUCCGGCGGCGCUCGUCGGAGAAGGGUGACAUGAGGAUCACCCAUGUACGUGCAACUCAGUUUGAGUG 33.9

Give its apparent Kd value. Item: UUUGGGUGGCUGGAGGAUAUUCGAGUGGUUACAUGAGGAUCACCCAUGUGUCGCGCGGUACACGAGGAGAAGGCUGGCGGCCGUU 22.4

Field request: apparent Kd | item: AAUAAACUCACAGGAUAUAGCAUAAGUCGCGUGAACUUACAGGCGACUAUGCUAGAAGGGUGACCACAUGAGGAUCACCCAUGU 158

Form field: reported apparent Kd of GUAGCAUACCGAGGAUAUUCAGGGCGUGGAUAGACAUGAGGAUCACCCAUGUGGCGAAAGCCUAGGGAGAAGGCGGAAUGCUAC 17.6

# get_value(readout='apparent Kd', item= UUGCCUCAGAACAUGAGGAUCACCCAUGUGCUGCGGGCAACGUAGGAUAUGAUGGCGUGACGCCAUCAGAAGGAUGAUGGUACC ) 6.15

Give its apparent Kd value. Item: UUAUACAUUCGAGGAUAUCGGUGAGAAAUCUUUCGAGAAGGCGAUUCAUGAUUUAUUAUCCUGGACAUGAGGAUCACCCAUGUA 60.9

Could you tell me which apparent Kd is on file for UGGUACUAGGGAGGAUAUGGGAAGAUACAUGAGGAUCACCCAUGUUUAAGAAUGCCGAGAGGCAACUAGAAGGCCCUAGUACUU ? 20.2

###

System: MS2 coat protein
Assay: apparent Kd, MS2 coat protein; higher = weaker binding; RNA-MaP array
Conditions: designed as: ON switch for flavin mononucleotide; no ligand
RECORDED METRIC: apparent Kd (nM)
Give just the numeric value; nM need not be written.

Consider the worked cases shown below.
CUGUACAUGAGGAUCACCCAUGUUAGACCAGCUUAAAAUAUAAGAAGGUUGAGGGCUUGACCAACAAAGGAUAUUAUGUGACCA: 27.7
AGCUGGGCUGAGAAGGCGUAUCGCUGUUAAGUGACAUGAGGAUCACCCAUGUAAUUACGAGGCUACGAGGAUAUCAACUAUGGA: 35.1
CCGAUGAUGAUAGGAUAUCUAGGAGUUAAGACGCCGUCUACAUGAGGAUCACCCAUGUUUCGAUUAGAGAAGGAUCGGGAUUCG: 13.1

I would be grateful if you could share the reported apparent Kd for GCUCUAAGGGAGAAGGUCAUGUCGCAUCUUAGCGUUCACAUGAGGAUCACCCAUGUUAACUGUGUGAAGGAUAUCCUAGGCUGU . 358

Can you share its apparent Kd? I mean this sequence: AUACGAGCCAAGAAGGAGGGAGAUCCUGCAGUCCUAGGAUAUUGGCCACAAUCGGCGGACGACAUGAGGAUCACCCAUGUCCCG 41.8

Give its apparent Kd value. Item: GUGGCACUCCUAGGAUAUUCACCUUGCGUAGAAAGACAUGAGGAUCACCCAUGUGUCUCUUAUUUGAAGAAGGAGGAACCUCGG 12.7

State the recorded apparent Kd for this entry: AGGCGCAACGUAGGAUAUACCGGCAUUGUCCAAGUAGAAGGACGUUGUGAUCGCUAGGUAACAUGAGGAUCACCCAUGUCUUAC 6.96

Entry UCGGCUUCCCAAGGAUAUGAGGUGCUUAUCGACAUGAGGAUCACCCAUGUAAAACUAGCUGCCAUUCAGAAGGUGGACACGCGC has what apparent Kd? 17

# apparent Kd lookup, item CGUCCACAUGAGGAUCACCCAUGUACACGCGAUCAAGGAUAUCGCGAUAACACAAUAGUGCGAGAAGGUGAUGUAC 148

I'd like to know its apparent Kd. The sequence in question is GUACUGCAGUUAGGAUAUACCGGAGGAUUAUACACCUACUAACAUGAGGAUCACCCAUGUCUCUCGUAGAAGGAACAUAUUAGC 20.9

Entry ACAACAAAACAGAAGGCCUUAAAUUACAUGAGGAUCACCCAUGUUACACUAUACAAACAGAACAAGGAGGAUAUGUAAGACUGA has what apparent Kd? 19.9

Report apparent Kd for GGGUUAAAGCAGAAGGGUUACGGACAAAAUUAAACAGGAUAUGCCGUAAUACAUGAGGAUCACCCAUGUCAUACGUCAUCAGGG please. 18.9

Entry under review: ACUCCCGCAGAAGGAUAUCCUGACUGAACGAUCGACAUGAGGAUCACCCAUGUGUCUCCGUCGAGGGAGAAGGUCUGCUGUGAC . Reported apparent Kd? 18.7

Request the reported apparent Kd associated with AAACAGAGCAGAGGAUAUAUGAUAUGCCGAACAUGAGGAUCACCCAUGUCUUCGCGUAGCGCCCCAUAGAAGGCUGAUAGCAAC 16.6

###

System: MS2 coat protein
Assay: apparent Kd, MS2 coat protein; higher = weaker binding; RNA-MaP array
Conditions: designed as: OFF switch for tryptophan; no ligand
Please enter Y where apparent Kd is greater than or equal to 20 nM, and N where it is lower.

Please review the entries below; each comes with its answer.
UUUAACAAGAACGUCCUGAGUGACAAGCUACGAGGACCGGUACGGCCGCCACUCGUACCAAAACAUGAGGAUCACCCAUGUUAAA: N
UGGAGAUAGACGGCCGCCACUAACAUGAGGAUCACCCAUGUCGUCACGAAUGGAUGGCCCUAGAAUAGGACCGGGUCCGGAUUCA: Y
UUAAAGGCACCUCAUGGGACUAUAAACCCGCGAGGACCGGUACGGCCGCCACUCGAAUAUCAACAUGAGGAUCACCCAUGUGGUU: Y
CUUGUGCUGACGGCCGCCACUUUAUGGGAGUCCUGUUCUGAUUGAUACAUGAGGAUCACCCAUGUAAGGACCGGGUCGUACCAUA: N

Hello, I need to know if AUCAUCAGUUCGGCCGCCACUGUUUGGCACAGUUGUAUCGUACAUGAGGAUCACCCAUGUCACCACAGGACCGGGAACGCCGUCG has measured apparent Kd not below 20 nM. Thanks! N
